- measurement-target: T1, recombinant BACE1 (BACE1 extracellular domain, R&D Systems Cat#931-AS) (UniProt P56817 22-457)
- T1 construct: extracellular domain; also called BACE1 extracellular domain protein
- T1 sequence (P56817 22-457): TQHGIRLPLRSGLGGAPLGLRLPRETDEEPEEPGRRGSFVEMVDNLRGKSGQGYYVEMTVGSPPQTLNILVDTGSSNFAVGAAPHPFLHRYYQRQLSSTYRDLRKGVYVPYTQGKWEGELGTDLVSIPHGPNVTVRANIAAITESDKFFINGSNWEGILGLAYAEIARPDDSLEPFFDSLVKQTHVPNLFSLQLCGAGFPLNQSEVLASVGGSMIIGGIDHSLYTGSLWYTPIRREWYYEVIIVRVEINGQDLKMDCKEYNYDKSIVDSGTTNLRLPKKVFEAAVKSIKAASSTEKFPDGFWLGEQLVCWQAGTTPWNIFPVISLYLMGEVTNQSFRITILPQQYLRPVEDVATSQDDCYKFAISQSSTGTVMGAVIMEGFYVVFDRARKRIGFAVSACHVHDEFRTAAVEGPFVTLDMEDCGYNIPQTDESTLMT
- assay-method-text: SPR Biacore
experimental-endpoint: kon

Need kon of 2H8.38 (antibody, human IgG1, V domains shown, human IgG1/kappa; also called 2H8_HCvar2 + 2H8_LCvar7) VH: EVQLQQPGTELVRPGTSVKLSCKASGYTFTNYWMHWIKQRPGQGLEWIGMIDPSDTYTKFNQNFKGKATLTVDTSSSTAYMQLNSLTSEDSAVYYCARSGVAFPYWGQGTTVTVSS VL: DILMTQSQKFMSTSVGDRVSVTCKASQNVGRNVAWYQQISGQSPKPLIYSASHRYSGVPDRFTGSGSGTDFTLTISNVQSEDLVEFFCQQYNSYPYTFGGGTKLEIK , thanks.
18500 M⁻¹ s⁻¹

Need kon of 2H8.21 (antibody, human IgG1, V domains shown, human IgG1/kappa; also called 2H8_HCvar3 + 2H8_LCvar4) VH: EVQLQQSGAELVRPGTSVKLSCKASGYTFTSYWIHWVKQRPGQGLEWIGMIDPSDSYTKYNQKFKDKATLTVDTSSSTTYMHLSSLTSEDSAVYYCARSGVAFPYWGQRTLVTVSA VL: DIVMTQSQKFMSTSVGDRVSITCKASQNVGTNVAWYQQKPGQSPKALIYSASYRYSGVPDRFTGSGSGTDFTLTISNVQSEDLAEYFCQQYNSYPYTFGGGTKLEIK , thanks.
11400 M⁻¹ s⁻¹

Need kon of 2H8.29 (antibody, human IgG1, V domains shown, human IgG1/kappa; also called 2H8_HCvar5 + 2H8_LCvar5) VH: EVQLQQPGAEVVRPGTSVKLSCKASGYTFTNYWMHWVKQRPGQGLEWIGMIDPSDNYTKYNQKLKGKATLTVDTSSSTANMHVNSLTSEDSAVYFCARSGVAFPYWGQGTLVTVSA VL: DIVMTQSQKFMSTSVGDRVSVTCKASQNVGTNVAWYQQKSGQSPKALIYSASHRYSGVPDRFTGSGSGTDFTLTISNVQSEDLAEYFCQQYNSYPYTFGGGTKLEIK , thanks.
13700 M⁻¹ s⁻¹

Need kon of 2H8.03 (antibody, human IgG1, V domains shown, human IgG1/kappa; also called 2H8_HCvar3 + 2H8_LC) VH: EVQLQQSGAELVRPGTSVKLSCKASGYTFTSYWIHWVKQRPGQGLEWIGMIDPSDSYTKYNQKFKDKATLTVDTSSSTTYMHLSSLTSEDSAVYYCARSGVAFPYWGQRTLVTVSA VL: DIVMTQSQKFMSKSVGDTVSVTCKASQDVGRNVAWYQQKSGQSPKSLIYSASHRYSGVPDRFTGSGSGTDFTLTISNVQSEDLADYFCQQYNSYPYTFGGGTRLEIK , thanks.
16100 M⁻¹ s⁻¹

Need kon of 2H8.06 (antibody, human IgG1, V domains shown, human IgG1/kappa; also called 2H8_HCvar6 + 2H8_LC) VH: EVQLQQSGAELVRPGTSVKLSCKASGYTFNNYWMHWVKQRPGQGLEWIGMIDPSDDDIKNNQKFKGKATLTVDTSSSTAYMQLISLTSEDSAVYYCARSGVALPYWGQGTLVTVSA VL: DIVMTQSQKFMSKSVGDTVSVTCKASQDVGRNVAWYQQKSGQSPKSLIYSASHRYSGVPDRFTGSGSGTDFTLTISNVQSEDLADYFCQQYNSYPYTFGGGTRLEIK , thanks.
16500 M⁻¹ s⁻¹
